- System: MCF-7
- ASSAY: MTT cytotoxicity assay, MCF-7 cells
- Format: cell-based, human
- MEASUREMENT CONTEXT: sodium counteranion salts, 72 h; read-out: IC50 in MCF-7 cell line Mean ± SD 72h
PROPERTY: IC50 (µM)

>  <MOLECULE>
c1ccc([B-](c2ccccc2)(c2ccccc2)c2ccccc2)cc1 [NaBPh4, reference compound]

>  <TGT>
MCF-7

>  <TEST VALUE>
102

$$$$
>  <MOLECULE>
F[P-](F)(F)(F)(F)F.[Na+] [NaPF6, reference compound]

>  <TGT>
MCF-7

>  <TEST VALUE>
311

$$$$
>  <MOLECULE>
[Cl-].[Na+] [NaCl, reference compound]

>  <TGT>
MCF-7

>  <TEST VALUE>
280

$$$$
>  <MOLECULE>
[F][Sb-]([F])([F])([F])([F])[F].[Na+] [NaSbF6, reference compound]

>  <TGT>
MCF-7

>  <TEST VALUE>
234

$$$$
>  <MOLECULE>
F[B-](F)(F)F.[Na+] [NaBF4, reference compound]

>  <TGT>
MCF-7

>  <TEST VALUE>
343

$$$$
>  <MOLECULE>
O=[N+]([O-])[O-].[Na+] [NaNO3, reference compound]

>  <TGT>
MCF-7

>  <TEST VALUE>
262

$$$$
>  <MOLECULE>
O=S(=O)([O-])C(F)(F)F.[Na+] [NaOTf, reference compound]

>  <TGT>
MCF-7

>  <TEST VALUE>
279

$$$$

Reference for the values: paper PMC10442743
